- tested-system: COS-7/AMY3 (human calcitonin receptor (CTR) and RAMP3) (Homo sapiens, UniProt O60896+P30988)
- Construct: expressed in transfected cells; host or cells: COS-7
- procedure-text: Amylin Receptor cAMP Assay II
- Format: cell-based
- experimental-conditions: values marked **: Amylin Receptor cAMP Assay II; COS-7/AMY3 cells, cAMP dynamic 2 kit, 30 min; read-out: Amylin Receptor cAMP Stimulation Activity: EC50
Examples of molecules with documented log10 EC50 follow.
Answers are given as log10 of EC50 in nM.

Consider the reported log10 EC50 for these molecules:
>>> reported_measurement("N#Cc1ccc(Cn2c(=O)oc3cc(-c4c(-c5n[nH]c(=O)o5)c(CCc5ccc(F)cc5)nc5c4S(=O)(=O)CC54CC4)ccc32)nc1")
1.88
>>> reported_measurement("O=C1c2c(nc(CCc3ccc(F)cc3)c(-c3n[nH]c(=O)o3)c2-c2cc3ccnc(N[C@@H]4CCOc5ccccc54)c3s2)[C@@H]2CCCN12")
1.52
>>> reported_measurement("O=C1c2c(nc(CCc3ccc(F)cc3)c(-c3n[nH]c(=O)o3)c2-c2cnc3c(ccn3Cc3ccc(F)cn3)c2)[C@@H]2CCCN12")
3.26
>>> reported_measurement("O=C1c2c(nc(CCc3ccc(F)cc3)c(-c3noc(=O)[nH]3)c2-c2cc3ccnc(N4CCCC4c4ccc(F)c(F)c4)c3s2)[C@@H]2CCCN12 (some centres unmarked)")
2.05
>>> reported_measurement("O=C1c2c(nc(CCc3ccc(F)cc3)c(-c3n[nH]c(=O)o3)c2-c2cc3ccnc(N[C@@H]4CCc5ccc(F)cc54)c3s2)[C@@H]2CCCN12")
0.83
>>> reported_measurement("Cc1cc2cc(-c3c4c(nc(CCc5ccc(F)cc5)c3-c3n[nH]c(=O)o3)C35CC(CN3C4=O)C5)sc2c(N[C@@H]2CCOc3c(F)cc(F)cc32)n1")
0.08

Request: For the molecule shown here, O=C(N[C@@H]1CCc2cc(F)c(F)cc21)c1ccc(-c2c3c(nc(CCc4ccc(F)cc4)c2-c2noc(=O)[nH]2)[C@@H]2CCCN2C3=O)s1 , give the reported log10 EC50.
Response: 1.37

Request: For the molecule shown here, N#Cc1ccc(Cn2ccc3cc(-c4c5c(nc(CCc6ccc(F)cc6)c4-c4n[nH]c(=O)o4)[C@@H]4CCCN4C5=O)cnc32)nc1 , give the reported log10 EC50.
Response: 2.88

Request: For the molecule shown here, COc1ccc(CCc2nc3c(c(-c4cc5ccnc(N[C@@H]6CCc7c(OC)cccc76)c5s4)c2-c2n[nH]c(=O)o2)C(=O)N2CCC[C@@H]32)cc1F , give the reported log10 EC50.
Response: 1.36

Request: For the molecule shown here, O=C(NCc1ccc(F)c(F)c1)c1ccc(-c2c3c(nc(CCc4ccc(F)cc4)c2-c2cc(=O)[nH]o2)[C@@H]2CCCN2C3=O)s1 , give the reported log10 EC50.
Response: 2.44

###

Examples of compounds with documented pEC50 follow.
- tested-system: human calcitonin receptor (CTR) (Homo sapiens, UniProt P30988)
- Sequence (P30988 25-474): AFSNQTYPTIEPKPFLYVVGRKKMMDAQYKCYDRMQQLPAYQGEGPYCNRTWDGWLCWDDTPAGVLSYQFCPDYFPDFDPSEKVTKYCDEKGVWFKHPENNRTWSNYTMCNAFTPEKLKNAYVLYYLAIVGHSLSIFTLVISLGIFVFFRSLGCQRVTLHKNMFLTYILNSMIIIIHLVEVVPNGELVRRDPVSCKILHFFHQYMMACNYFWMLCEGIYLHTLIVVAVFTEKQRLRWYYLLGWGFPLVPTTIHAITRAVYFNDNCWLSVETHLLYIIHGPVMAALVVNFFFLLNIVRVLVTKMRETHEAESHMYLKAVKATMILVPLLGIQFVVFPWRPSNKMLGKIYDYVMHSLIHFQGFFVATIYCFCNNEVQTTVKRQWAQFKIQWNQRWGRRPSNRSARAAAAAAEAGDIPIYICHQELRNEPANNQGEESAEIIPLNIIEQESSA
- procedure-text: Calcitonin Receptor (CTR) cAMP Assay
- experimental-conditions: COS7-human CTR Clone #2 stable cell line, cAMP dynamic 2 kit, 30 min; read-out: Calcitonin Receptor cAMP Stimulation Activity: EC50
# pEC50: negative log10 of molar concentration; output just the value

>>> reported_measurement("N#Cc1ccc(Cn2ccc3cc(-c4c(-c5cc(=O)[nH]o5)c(CCC5CCOCC5)nc5c4S(=O)(=O)N4CCC[C@@H]54)ccc32)cc1F")
8.06
>>> reported_measurement("COc1c(F)ccc2c1CC(F)(F)[C@H]2Nc1nc(C)cc2cc(-c3c4c(nc(CCc5ccc(F)cc5)c3-c3n[nH]c(=O)o3)C35CC(CN3C4=O)C5)sc12")
10.79
>>> reported_measurement("COc1c(F)ccc2c1CC[C@H]2Nc1nc(C)cc2cc(-c3c4c(nc(CCc5ccc(F)cc5)c3-c3n[nH]c(=O)o3)[C@@H]3CCCN3C4=O)sc12")
10.32
>>> reported_measurement("O=C1c2c(nc(CCc3ccc(F)cc3)c(-c3n[nH]c(=O)o3)c2-c2cc3ccnc(N[C@@H]4COc5ccccc54)c3s2)[C@@H]2CCCN12")
7.99
>>> reported_measurement("COc1cc(F)cc2c1CC[C@H]2Nc1nccc2cc(-c3c4c(nc(CCc5ccc(F)cc5)c3-c3n[nH]c(=O)o3)C35CC(CN3C4=O)C5)sc12")
10.36
>>> reported_measurement("O=C1c2c(nc(CCc3ccc(F)cc3)c(-c3noc(=O)[nH]3)c2-c2cc3ccnc(N4CCCC4c4ccc(F)c(F)c4)c3s2)[C@@H]2CCCN12 (some centres unmarked)")
7.27
>>> reported_measurement("O=C1c2c(nc(CCc3ccc(F)cc3)c(-c3noc(=O)[nH]3)c2-c2ccc3c(NCc4ccc(F)c(F)c4)nccc3c2)[C@@H]2CCCN12")
6.69
>>> reported_measurement("O=c1cc(-c2c(CCC3CCOCC3)nc3c(c2-c2cc4ccnc(N[C@@H]5CCc6ncccc65)c4s2)S(=O)(=O)N2CCC[C@@H]32)o[nH]1")
7.72
>>> reported_measurement("COc1c(F)ccc2c1C[C@@H](F)[C@H]2Nc1nccc2cc(-c3c4c(nc(CCc5ccc(F)cc5)c3-c3n[nH]c(=O)o3)C35CC(CN3C4=O)C5)sc12")
10.86
>>> reported_measurement("COc1c(F)ccc2c1CC[C@H]2Nc1nc(C(F)F)cc2cc(-c3c4c(nc(CCc5ccc(F)cc5)c3-c3n[nH]c(=O)o3)C35CC(CN3C4=O)C5)sc12")
10.75

Here's the next entry for you.
Request: For the compound shown here, O=C1c2c(nc(CCc3ccc(F)cc3)c(-c3n[nH]c(=O)o3)c2-c2cc3ccnc(N[C@@H]4CCc5nc(C(F)(F)F)ccc54)c3s2)[C@@H]2CCCN12 , give the reported pEC50.
Response: 7.68
